- System: CP325
- Procedure Text: qHTS profiling for inhibitors of Plasmodium falciparum proliferation (AID 504749); also: nearly all actives have a fitted effect of over 60% in size
- Details: P. falciparum in erythrocytes, SYBR Green DNA, 72 h; series mostly up to 28.7 µM
- Experimental: NIH National Institute of Allergy and Infectious Diseases [NIAID] NIH Chemical Genomics Center [NCGC] […] Because mature erythrocytes lack DNA, only Plasmodium-derived DNA is detected. NCGC Assay Protocol Summary: The SYBR Green viability assay was adapted from a method described previously (Plouffe et al., 2008). […] The following morning, fluorescence intensity at 485(14) nm excitation and 535(25) nm emission wavelengths was measured on an EnVision (Perkin Elmer) plate reader. […]
Inconclusive results are not listed. Calls of active or inactive are those of the source. Calls follow the shape of the dose curve; as a rule, active = well fitted inhibition curve with a large enough effect; inconclusive = small, poorly fitted or top-dose-only effect; inactive = flat fitted curve, though single readings scatter.
Outcomes: active, inactive

# Compound, Experimental Target, Label
records = [
    ("CC1=C(c2ccc(NN=C(C#N)C#N)cc2)NNC(=O)C1", "CP325", "inactive"),
    ("CC(c1ncncc1F)[C@](O)(Cn1cncn1)c1ccc(F)cc1F (stereo partly drawn)", "CP325", "inactive"),
    ("Cc1ccc(Nc2ncccc2C(=O)O)cc1C", "CP325", "inactive"),
    ("CC[C@H]1OC(=O)[C@H](C)C(=O)[C@H](C)[C@@H](OC2O[C@H](C)C[C@H](N(C)C)[C@@H]2O)[C@@](C)(OC)C[C@@H](C)C(=O)[C@@H](C)C2N(CCCCn3cnc(-c4cccnc4)c3)C(=O)O[C@@]21C (stereo partly drawn)", "CP325", "inactive"),
    ("Cc1c(C)c2c(c(C)c1O)CCC(C)(CCCC(C)CCCC(C)CCCC(C)C)O2 (stereo not drawn)", "CP325", "inactive"),
    ("CCC(C(=O)O)C1OC(C(C)C(O)C(C)C(=O)C(CC)C2OC3(C=CC(O)C4(CCC(C)(C5CCC(O)(CC)C(C)O5)O4)O3)C(C)CC2C)C(C)CC1C (stereo not drawn)", "CP325", "active"),
    ("CC1CN(c2c(F)c(N)c3c(=O)c(C(=O)O)cn(C4CC4)c3c2F)CC(C)N1 (stereo not drawn)", "CP325", "inactive"),
    ("CC1=C(/C=C/C(C)=C\\C=C\\C(C)=C\\C=C\\C=C(C)\\C=C\\C=C(C)\\C=C\\C2=C(C)C[C@@H](O)CC2(C)C)C(C)(C)C[C@H](O)C1", "CP325", "inactive"),
]
